target: Rat M4 (Rattus norvegicus); test: mAChR M4 cell-based functional assay (calcium flux, antagonist mode vs EC80 acetylcholine), rat M4/Gqi5/CHO-K1 cells; conditions: decrease of response elicited by EC80 acetylcholine; rat M4/Gqi5 CHO-K1 cells
Sequence (P08485 whole entry): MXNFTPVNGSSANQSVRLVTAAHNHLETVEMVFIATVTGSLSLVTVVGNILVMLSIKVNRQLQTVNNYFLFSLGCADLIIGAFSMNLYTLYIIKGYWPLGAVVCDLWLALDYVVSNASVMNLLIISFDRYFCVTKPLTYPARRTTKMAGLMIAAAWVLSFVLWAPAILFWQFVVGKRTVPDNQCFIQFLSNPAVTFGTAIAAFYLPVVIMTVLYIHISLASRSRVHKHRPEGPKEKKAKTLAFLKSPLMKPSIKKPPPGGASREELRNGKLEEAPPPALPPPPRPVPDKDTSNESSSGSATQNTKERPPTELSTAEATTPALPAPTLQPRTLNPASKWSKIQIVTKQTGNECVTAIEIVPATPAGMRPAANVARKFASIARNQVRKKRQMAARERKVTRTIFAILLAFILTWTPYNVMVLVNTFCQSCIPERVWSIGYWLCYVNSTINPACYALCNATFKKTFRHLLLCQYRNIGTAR
pIC50: −log10 of the molar value.

molecule	pIC50
CC1(C)CC(N2C[C@H]3C[C@H](Nc4ccc(N5CCOCC5)nn4)C[C@H]3C2)CCO1 (some centres unmarked)	5.29
CC1(C)CC(N2C[C@H]3C[C@H](Nc4ccc(-c5cccnc5)nn4)C[C@H]3C2)CCO1 (some centres unmarked)	5.14
CC1(C)CC(N2C[C@H]3C[C@H](Nc4ccc(-c5cc(F)ccc5Cl)nn4)C[C@H]3C2)CCO1 (some centres unmarked)	7.01
Cc1cc(CN2C[C@H]3C[C@H](Nc4ccc(S(=O)(=O)C5CCCCC5)nn4)C[C@H]3C2)nn1C	5.32
O=S(=O)(c1ccccc1)c1ccc(N[C@H]2C[C@@H]3CN(CC4CCOCC4)C[C@@H]3C2)nn1	5.82
CC1(C)CC(N2C[C@H]3C[C@H](Nc4ccc(-c5ccccc5F)nn4)C[C@H]3C2)CCO1 (some centres unmarked)	6.11
CC1(C)CC(N2C[C@H]3C[C@H](Nc4ccc(S(=O)(=O)C5CCCCC5)nn4)C[C@H]3C2)CCO1 (some centres unmarked) [compound 66]	6.34
Cc1cc(CN2C[C@H]3C[C@H](Nc4ccc(S(=O)(=O)c5ccccc5)nn4)C[C@H]3C2)ccc1F	5.94
O=S(=O)(c1ccc(N[C@H]2C[C@@H]3CN(Cc4ccc5cc[nH]c5c4)C[C@@H]3C2)nn1)C1CCCCC1	5.34
